The reported numbers originate from patent US20250179028A1.

- Test system: mPTP
- ASSAY: mPTP activity (Ca2+ retention) assay in isolated rat liver mitochondria
- Format: biochemical
- CONDITION DETAILS: isolated rat liver mitochondria; average value from multiple experiments (n ≥ 2)
QUANTITY KIND: mPTP Rat liver pIC50

molecule="Cc1c(F)cccc1NC(=O)/C=C/c1ccc2sc(=O)[nH]c2c1 [Example 2]" study_system=mPTP quantity_kind="mPTP Rat liver pIC50" measured=6.0
molecule="COc1cc(C)c(NC(=O)/C=C/c2ccc3c(C#N)n[nH]c3c2)c(C)n1 [Example 94]" study_system=mPTP quantity_kind="mPTP Rat liver pIC50" measured=7.5
molecule="Cc1c(F)cccc1NC(=O)/C=C/c1ccc2c(c1)NC(=O)C2 [Example 10]" study_system=mPTP quantity_kind="mPTP Rat liver pIC50" measured=6.7
molecule="Cc1c(F)cncc1NC(=O)/C=C/c1ccc2c(C)n[nH]c2c1 [Example 110]" study_system=mPTP quantity_kind="mPTP Rat liver pIC50" measured=7.1
molecule="Cc1c(F)cc(F)c(C)c1NC(=O)/C=C/c1ccc2c(c1)NC(=O)C2 [Example 35]" study_system=mPTP quantity_kind="mPTP Rat liver pIC50" measured=7.2
